Biological target: beta-catenin-B-cell lymphoma 9 protein complex (Homo sapiens)
Sequence (O00512 whole entry, one chain of several, further chain, the tested form may be a part): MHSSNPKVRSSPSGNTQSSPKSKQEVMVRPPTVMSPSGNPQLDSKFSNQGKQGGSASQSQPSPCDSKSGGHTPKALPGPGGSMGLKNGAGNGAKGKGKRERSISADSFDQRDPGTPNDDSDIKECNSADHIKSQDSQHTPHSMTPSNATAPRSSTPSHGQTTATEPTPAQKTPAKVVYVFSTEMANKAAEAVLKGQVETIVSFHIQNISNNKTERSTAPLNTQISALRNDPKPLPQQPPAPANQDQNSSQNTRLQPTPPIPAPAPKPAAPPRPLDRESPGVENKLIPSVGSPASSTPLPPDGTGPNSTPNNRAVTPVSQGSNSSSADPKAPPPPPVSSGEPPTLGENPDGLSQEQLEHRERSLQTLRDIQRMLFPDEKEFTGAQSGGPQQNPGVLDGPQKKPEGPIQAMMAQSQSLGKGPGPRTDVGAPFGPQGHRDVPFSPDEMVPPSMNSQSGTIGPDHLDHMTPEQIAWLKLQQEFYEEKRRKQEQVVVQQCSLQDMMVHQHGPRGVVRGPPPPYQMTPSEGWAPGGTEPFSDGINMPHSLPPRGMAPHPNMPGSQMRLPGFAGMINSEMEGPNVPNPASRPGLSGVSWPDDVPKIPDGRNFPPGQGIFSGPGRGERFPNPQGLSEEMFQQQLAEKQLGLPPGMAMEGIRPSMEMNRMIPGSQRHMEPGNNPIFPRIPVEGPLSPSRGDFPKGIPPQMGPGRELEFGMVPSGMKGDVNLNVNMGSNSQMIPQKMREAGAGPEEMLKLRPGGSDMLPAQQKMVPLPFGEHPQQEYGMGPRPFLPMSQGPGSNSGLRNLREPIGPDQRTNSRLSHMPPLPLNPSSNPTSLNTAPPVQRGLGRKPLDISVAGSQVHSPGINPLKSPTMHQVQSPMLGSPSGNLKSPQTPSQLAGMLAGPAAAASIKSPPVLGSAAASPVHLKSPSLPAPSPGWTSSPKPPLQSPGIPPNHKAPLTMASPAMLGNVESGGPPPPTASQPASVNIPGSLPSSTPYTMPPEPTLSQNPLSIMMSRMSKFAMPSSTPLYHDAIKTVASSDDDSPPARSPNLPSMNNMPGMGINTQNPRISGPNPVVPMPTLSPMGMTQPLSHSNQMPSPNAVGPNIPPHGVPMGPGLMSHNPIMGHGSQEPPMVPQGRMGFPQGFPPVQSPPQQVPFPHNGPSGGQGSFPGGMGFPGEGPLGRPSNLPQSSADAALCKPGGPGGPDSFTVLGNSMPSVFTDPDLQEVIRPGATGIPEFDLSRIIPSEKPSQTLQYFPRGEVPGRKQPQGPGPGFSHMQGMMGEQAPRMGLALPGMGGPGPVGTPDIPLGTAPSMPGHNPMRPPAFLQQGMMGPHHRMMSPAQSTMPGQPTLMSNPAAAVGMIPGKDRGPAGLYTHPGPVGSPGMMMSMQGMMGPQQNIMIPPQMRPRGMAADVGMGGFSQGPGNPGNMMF
Test: Binding affinity to N-terminal FLAG tagged beta catenin (134 to 671 residues)/FLAG tagged BCL9 domain 2 (343 to 396 residues) (unknown origin) protein protein interaction assessed as inhibition constant
MEASUREMENT_KIND: pKi
Schema: pKi number; meaning minus log10 of the concentration expressed in molar units.

Prompt: For the compound CC(C)c1cc2c(c(O)c1O)[C@@]1(C(=O)O)CCCC(C)(C)[C@@H]1CC2 [CARNOSIC ACID] , what pKi is on record?
Completion: 5.52

---

Please go through the items and note down their ΔTm.
Target: Catenin beta-1 (Homo sapiens) (UniProt P35222)
Sequence (P35222 whole entry): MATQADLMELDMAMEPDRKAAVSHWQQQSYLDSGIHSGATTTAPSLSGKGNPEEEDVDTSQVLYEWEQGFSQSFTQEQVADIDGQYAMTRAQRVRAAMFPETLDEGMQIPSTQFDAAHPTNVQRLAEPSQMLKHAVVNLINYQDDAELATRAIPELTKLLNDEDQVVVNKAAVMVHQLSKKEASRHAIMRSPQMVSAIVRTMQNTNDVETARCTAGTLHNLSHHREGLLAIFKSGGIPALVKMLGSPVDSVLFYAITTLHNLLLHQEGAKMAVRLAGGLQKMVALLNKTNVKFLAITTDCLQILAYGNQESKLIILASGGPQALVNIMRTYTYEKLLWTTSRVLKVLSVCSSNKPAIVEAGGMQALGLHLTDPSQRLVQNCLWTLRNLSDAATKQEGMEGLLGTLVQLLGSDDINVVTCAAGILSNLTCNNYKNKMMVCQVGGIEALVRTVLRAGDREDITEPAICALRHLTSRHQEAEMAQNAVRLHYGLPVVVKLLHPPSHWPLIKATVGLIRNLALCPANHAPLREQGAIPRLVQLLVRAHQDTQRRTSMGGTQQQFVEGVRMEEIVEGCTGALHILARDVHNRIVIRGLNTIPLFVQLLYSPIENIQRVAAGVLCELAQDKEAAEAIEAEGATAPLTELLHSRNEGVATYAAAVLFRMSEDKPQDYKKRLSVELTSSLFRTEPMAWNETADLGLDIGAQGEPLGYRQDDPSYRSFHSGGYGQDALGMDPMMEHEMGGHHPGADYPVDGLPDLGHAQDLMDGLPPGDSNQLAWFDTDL
Conditions: dose 125.0 µM
Description: Thermal stabilization of wildtype beta catenin ARD (148 to 662 residues) (unknown origin) assessed as change in melting temperature at 125 uM by DSF method
Please answer in the form of a number followed by its unit of measurement.

Prompt: For the compound Cn1ncnc2c(=O)n(C)c(=O)nc1-2 , what ΔTm is on record?
Completion: -0.5 °C

Prompt: Entry CCc1cccc2c3c([nH]c12)[C@@](CC)(CC(=O)O)OCC3 [SDX-101] please
Completion: -0.5 °C

Prompt: Entry Fc1ccc2nc(OCCN3CCCC3)c(C#Cc3ccccc3)nc2c1 please
Completion: 0.1 °C

Prompt: Entry COc1ccc2[nH]c3c(-c4cccc5ccccc45)nccc3c2c1 please
Completion: -0.9 °C

Prompt: Entry Cc1ccc(S(=O)(=O)Nc2cccc(C(=O)O)c2)cc1 please
Completion: -0.5 °C

Prompt: Entry c1ccc(CCNc2nc(N3CCCCC3)nc3ccccc23)cc1 please
Completion: -0.6 °C
